These data points were gathered from paper PMC7547831.

Kindly supply the reported Kd values for the records listed here.
target: ACE2 (Homo sapiens, UniProt Q9BYF1); test: SPR analysis of affinity to ACE2 recombinant protein; settings: SPR, steady-state affinity model (1:1), 0.024 to 50 μmol/L
Sequence (Q9BYF1 18-740): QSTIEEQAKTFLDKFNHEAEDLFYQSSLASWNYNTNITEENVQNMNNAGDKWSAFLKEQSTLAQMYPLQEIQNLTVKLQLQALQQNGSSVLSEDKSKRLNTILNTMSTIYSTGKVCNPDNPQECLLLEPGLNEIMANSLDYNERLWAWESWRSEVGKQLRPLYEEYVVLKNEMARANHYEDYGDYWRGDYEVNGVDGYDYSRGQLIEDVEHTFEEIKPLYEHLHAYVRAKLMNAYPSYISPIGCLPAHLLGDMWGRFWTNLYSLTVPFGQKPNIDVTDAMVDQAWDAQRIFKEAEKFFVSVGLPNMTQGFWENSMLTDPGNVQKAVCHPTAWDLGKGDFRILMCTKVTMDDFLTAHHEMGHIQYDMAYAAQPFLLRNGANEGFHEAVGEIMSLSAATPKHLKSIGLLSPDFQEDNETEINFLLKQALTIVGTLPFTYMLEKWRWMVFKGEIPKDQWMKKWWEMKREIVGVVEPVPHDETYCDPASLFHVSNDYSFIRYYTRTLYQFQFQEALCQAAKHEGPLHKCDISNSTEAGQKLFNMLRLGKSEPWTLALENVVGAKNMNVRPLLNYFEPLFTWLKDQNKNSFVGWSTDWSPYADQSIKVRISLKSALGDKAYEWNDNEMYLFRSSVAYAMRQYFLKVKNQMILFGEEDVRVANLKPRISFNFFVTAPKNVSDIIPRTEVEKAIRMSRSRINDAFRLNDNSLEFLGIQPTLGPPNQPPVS
Provide only the numeric value, understood in µM.

According to the records, this compound C[C@@H]1O[C@@H](OC[C@H]2O[C@@H](OCCc3ccc(O)c(O)c3)[C@H](O)[C@@H](O)[C@@H]2OC(=O)/C=C/c2ccc(O)c(O)c2)[C@H](O)[C@H](O)[C@H]1O [Forsythoside A (128), Forsythoside A] displays Kd of 15.8

According to the records, this compound "O=C(/C=C/c1ccc(O)c(O)c1)O[C@@H]1C[C@@](O)(C(=O)O)C[C@@H](O)[C@@H]1O" displays Kd of 7.88

According to the records, this compound C[C@@H]1O[C@@H](OC[C@H]2O[C@@H](OCCc3ccc(O)c(O)c3)[C@H](O)[C@@H](OC(=O)/C=C/c3ccc(O)c(O)c3)[C@@H]2O)[C@H](O)[C@H](O)[C@H]1O [Forsythoside I (104), Forsythoside I] displays Kd of 18.7

According to the records, this compound Cc1cc(O[C@@H]2OC(CO)[C@@H](O)C(O)C2O)c2c(c1)C(=O)c1cc(O)cc(O)c1C2=O (stereo partly drawn) [Emodin 8-O-β-D-glucoside (195), Emodin 8-O-β-D-glucoside] displays Kd of 21.3
